# measurementTarget: LTK (human)
# testDescription: KINOMEscan competition binding
# appliedConditions: compound 10.0 µM
Below, each entry is listed alongside its reported kinase still bound, per cent of control.
Expressed in %, but write only the number.

Study these solved cases before continuing.
NC(=O)Nc1cc(-c2cccc(F)c2)sc1C(=O)N[C@@H]1CCCNC1 = 0.3
C=CC(=O)Nc1cc(-n2c(=O)ccc3cnc4ccc(-c5cn[nH]c5)cc4c32)ccc1C = 100
CS(=O)(=O)N1CCN(Cc2cc3nc(-c4cccc5[nH]ncc45)nc(N4CCOCC4)c3s2)CC1 = 100
O=C(Nc1cccc(Nc2ncc(Br)c(NCCc3cnc[nH]3)n2)c1)N1CCCC1 = 66
CN(C)C/C=C/C(=O)Nc1ccc(C(=O)Nc2cccc(Nc3nccc(-c4cccnc4)n3)c2)cc1 = 100

The molecule listed as `COc1cc2ncnc(-n3nc(-c4ccccn4)nc3N)c2cc1OC` has a reported kinase still bound, per cent of control of 24

The molecule listed as `Cc1n[nH]c2ccc(-c3cncc(OC[C@@H](N)Cc4c[nH]c5ccccc45)c3)cc12` has a reported kinase still bound, per cent of control of 100

The molecule listed as `COc1ccc(N(C(=O)Oc2c(C)cccc2C)c2ccnc(Nc3ccc(N4CCN(C)CC4)cc3)n2)c(OC)c1` has a reported kinase still bound, per cent of control of 1.2

The molecule listed as `COCC(=O)NC/C=C/c1ccc2ncnc(Nc3ccc(Oc4ccc(C)nc4)c(C)c3)c2c1` has a reported kinase still bound, per cent of control of 88

###

Below, each entry is listed alongside its reported kinase still bound, per cent of control.
# measurementTarget: EPHA4 (human)
# testDescription: KINOMEscan competition binding
# appliedConditions: compound 10.0 µM
Expressed in %, but write only the number.

The compound listed as `Cc1n[nH]c2ccc(-c3cncc(OC[C@@H](N)Cc4c[nH]c5ccccc45)c3)cc12` has a reported kinase still bound, per cent of control of 100

The compound listed as `C=CC(=O)Nc1ccc(CN(C(=O)Nc2c(Cl)c(OC)cc(OC)c2Cl)c2cc(Nc3ccc(N4CCN(C)CC4)cc3)ncn2)cc1` has a reported kinase still bound, per cent of control of 100

The compound listed as `COc1cc(C(=O)N2CCC(N3CCN(C)CC3)CC2)ccc1Nc1ncc2c(n1)N(C)c1ccccc1C(=O)N2C` has a reported kinase still bound, per cent of control of 89

###

# measurementTarget: CDK2 (human)
# testDescription: KINOMEscan competition binding
# appliedConditions: compound 10.0 µM
outcomeMeasure: kinase still bound, per cent of control
Reply with the number, then its unit.

O=C(Nc1cccc(Nc2ncc(Br)c(NCCc3cnc[nH]3)n2)c1)N1CCCC1 = 43%
C[C@@H](Oc1cc(-c2cnn(C3CCNCC3)c2)cnc1N)c1c(Cl)ccc(F)c1Cl = 81%

The compound listed as `CCN1CCN(C(=O)Cc2ccc(Nc3ncc(F)c(Nc4ccc(C(=O)Nc5ccccc5Cl)cc4)n3)cc2)CC1` has a reported kinase still bound, per cent of control of 80%

###

# Test system: MET (human), P08581 [Y1235D]
# testDescription: KINOMEscan competition binding
# appliedConditions: compound 10.0 µM
Below, each entry is listed alongside its reported kinase still bound, per cent of control.
Expressed in %, but write only the number.

CCCS(=O)(=O)Nc1ccc(F)c(C(=O)c2c[nH]c3ncc(Cl)cc23)c1F = 100
CN(C)C/C=C/C(=O)Nc1ccc(C(=O)Nc2cccc(Nc3nccc(-c4cccnc4)n3)c2)cc1 = 100

Please find the next compound below.
Measured on MET (human), P08581 [Y1235D], `COc1cc(C(=O)N2CCC(N3CCN(C)CC3)CC2)ccc1Nc1ncc2c(n1)N(C)c1ccccc1C(=O)N2C` has a documented kinase still bound, per cent of control of 100
